- ASSAYED_TARGET: T1, FZD5 CRD (Homo sapiens, UniProt Q13467)
- T1 construct: K29-T156; GPI anchor signal (C); expressed in transfected cells; host or cells: CHO cells, lentiviral pLenti-puro
- T1 sequence (Q13467 29-156): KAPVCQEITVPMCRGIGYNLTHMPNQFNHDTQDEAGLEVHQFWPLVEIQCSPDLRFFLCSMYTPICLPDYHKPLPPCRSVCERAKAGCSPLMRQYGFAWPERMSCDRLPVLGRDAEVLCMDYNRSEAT
- PROTOCOL: Immunofluorescence of anti-FZD5 Fab binding to CHO cells overexpressing Frizzled CRD
- Design: key: −: no binding; +: very weak binder; ++: weak binder; +++: good binder; ++++: very good binder
PROPERTY_NAME: Immunofluorescence binding, Frizzled CRD overexpressed on CHO cells: FZD5

MOLECULE	RESULT
Fab-2903: anti-FZD5 Fab with antibody variable region Fv-2903; CDR SEQ ID NOs: 35, 36, 42, 81, 118, 155 (antibody, V domains shown) VH: EVQLVESGGGLVQPGGSLRLSCAASGFNLSYYYIHWVRQAPGKGLEWVASIYPYSSYTSYADSVKGRFTISADTSKNTAYLQMNSLRAEDTAVYYCARGAIDYWGQGTLVTVSS VL: DIQMTQSPSSLSASVGDRVTITCRASQSVSSAVAWYQQKPGKAPKLLIYSASSLYSGVPSRFSGSRSGTDFTLTISSLQPEDFATYYCQQWGGGSSLFTFGQGTKVEIK	++++
Fab-2930: anti-FZD5 Fab with antibody variable region Fv-2930; CDR SEQ ID NOs: 35, 36, 69, 107, 145, 153 (antibody, V domains shown) VH: EVQLVESGGGLVQPGGSLRLSCAASGFNLSYYYIHWVRQAPGKGLEWVASIYPYSGSTSYADSVKGRFTISADTSKNTAYLQMNSLRAEDTAVYYCARGALDYWGQGTLVTVSS VL: DIQMTQSPSSLSASVGDRVTITCRASQSVSSAVAWYQQKPGKAPKLLIYSASSLYSGVPSRFSGSRSGTDFTLTISSLQPEDFATYYCQQWYGPYLITFGQGTKVEIK	++++

Origin of values: patent US20210253718A1
